- System: Human immunodeficiency virus 1
- assayRemarks: Effective concentration against human immunodeficiency virus type 1 mutated at 181C
- Type: functional, organism-based
We label by threshold. Values of EC50 strictly beneath 6 nM are 1.0. Values of 6 nM and up are 0.0.

Some entries whose results are on file:
[[record]]
molecule = "CC(C)Nc1cccnc1N1CCN(C(=O)c2cc3cc(NS(C)(=O)=O)ccc3[nH]2)CC1 [DELAVIRDINE]"
classassignment = 0.0

[[record]]
molecule = "Cc1cc(-c2ccc(C#N)o2)cc(C)c1Nc1ccnc(Nc2ccc(C#N)cc2)n1"
classassignment = 0.0

[[record]]
molecule = "Cc1ccnc2c1NC(=O)c1cccnc1N2C1CC1 [NEVIRAPINE]"
classassignment = 0.0

[[record]]
molecule = "Cc1cc(COCCC#N)cc(C)c1Nc1ccnc(Nc2ccc(C#N)cc2)n1"
classassignment = 0.0


q: Lab log: compare recorded EC50 with 6 nM; is it strictly lower for Cc1cc(CC#N)cc(C)c1Nc1ccnc(Nc2ccc(C#N)cc2)n1 ?
a: 0.0

q: Lab log: compare recorded EC50 with 6 nM; is it strictly lower for Cc1cc(/C=C/C#N)cc(C)c1Nc1ccnc(Nc2ccc(C#N)cc2)n1 [RILPIVIRINE] ?
a: 1.0

q: Lab log: compare recorded EC50 with 6 nM; is it strictly lower for Cc1cc(CC(C)C#N)cc(C)c1Nc1ccnc(Nc2ccc(C#N)cc2)n1 (centres undefined) ?
a: 1.0

q: Lab log: compare recorded EC50 with 6 nM; is it strictly lower for C/C(=C\C#N)c1cc(C)c(Nc2ccnc(Nc3ccc(C#N)cc3)n2)c(C)c1 ?
a: 1.0

q: Lab log: compare recorded EC50 with 6 nM; is it strictly lower for C/C(C#N)=C\c1cc(C)c(Nc2ccnc(Nc3ccc(C#N)cc3)n2)c(C)c1 ?
a: 1.0

q: Lab log: compare recorded EC50 with 6 nM; is it strictly lower for Cc1cc(/C=C/CC#N)cc(C)c1Nc1ccnc(Nc2ccc(C#N)cc2)n1 ?
a: 0.0

q: Lab log: compare recorded EC50 with 6 nM; is it strictly lower for Cc1cc(/C=C(/C#N)CC#N)cc(C)c1Nc1ccnc(Nc2ccc(C#N)cc2)n1 ?
a: 0.0

q: Lab log: compare recorded EC50 with 6 nM; is it strictly lower for Cc1cc(/C=C\C#N)cc(C)c1Nc1ccnc(Nc2ccc(C#N)cc2)n1 ?
a: 1.0

q: Lab log: compare recorded EC50 with 6 nM; is it strictly lower for Cc1cc(C#N)cc(C)c1Nc1ccnc(Nc2ccc(C#N)cc2)n1 ?
a: 0.0

q: Lab log: compare recorded EC50 with 6 nM; is it strictly lower for C/C(C#N)=C/c1cc(C)c(Nc2ccnc(Nc3ccc(C#N)cc3)n2)c(C)c1 ?
a: 1.0

====

- Test system: Human immunodeficiency virus 1
- assayRemarks: Effective concentration against human immunodeficiency virus type 1 mutated at 188L
- Assay type: functional, organism-based
recordedMetric: pEC50
Bear in mind: pEC50 is minus log10 of a mol/L concentration; give just that figure.

q: Respond only with pEC50 recorded for Cc1cc(C#N)cc(C)c1Nc1ccnc(Nc2ccc(C#N)cc2)n1
a: 8.10

q: Respond only with pEC50 recorded for O=C1Nc2ccc(Cl)cc2[C@@](C#CC2CC2)(C(F)(F)F)O1
a: 6.80

q: Respond only with pEC50 recorded for Cc1cc(-c2ccc(C#N)o2)cc(C)c1Nc1ccnc(Nc2ccc(C#N)cc2)n1
a: 7.50
